Sequence of the target: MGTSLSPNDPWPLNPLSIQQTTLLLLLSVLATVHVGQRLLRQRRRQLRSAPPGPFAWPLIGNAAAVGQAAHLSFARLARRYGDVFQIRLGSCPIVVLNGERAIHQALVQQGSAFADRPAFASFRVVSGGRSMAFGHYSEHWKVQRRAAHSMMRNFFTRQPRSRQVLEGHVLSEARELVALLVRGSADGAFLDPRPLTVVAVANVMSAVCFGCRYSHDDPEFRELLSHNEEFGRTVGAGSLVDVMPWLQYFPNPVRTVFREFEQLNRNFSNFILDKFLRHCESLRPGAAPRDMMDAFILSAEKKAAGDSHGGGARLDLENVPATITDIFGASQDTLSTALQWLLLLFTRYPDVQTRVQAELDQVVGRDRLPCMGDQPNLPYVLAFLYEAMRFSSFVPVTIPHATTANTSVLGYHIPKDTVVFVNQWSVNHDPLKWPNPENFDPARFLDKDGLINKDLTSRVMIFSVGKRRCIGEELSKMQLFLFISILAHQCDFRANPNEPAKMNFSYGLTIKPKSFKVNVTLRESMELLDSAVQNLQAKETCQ
pIC50 listing for selected compounds.
Scale: pIC50 equals -log10([C]), with [C] in mol/L.

Here's what some known entries look like.
{"columns": ["compound", "assay.readout", "quantitative.result"],
 "data": [
  ["c1ccc(/N=N/N2CCOCC2)cc1", "pIC50", 3.79],
  ["COc1cc(/N=N/N2CCOCC2)cc(OC)c1OC", "pIC50", 4.74],
  ["Brc1ccc(/N=N/N2CCOCC2)cc1", "pIC50", 5.15],
  ["O=[N+]([O-])c1ccc(/N=N/N2CCOCC2)cc1", "pIC50", 5.70]
]}

Now look at this entry.
Any idea what pIC50 was measured for Oc1ccc(/C=C/c2cc(O)cc(O)c2)cc1 [RESVERATROL] ?
4.26

====

# experimental.system: CYP1B1 (Homo sapiens, UniProt Q16678)
# method.summary: in vitro
# Description: Inhibition of recombinant human CYP1B1 expressed in Escherichia coli DH5aplha cells assessed as O-deethylation of ethoxyresorufin in presence of NADPH at 100 uM measured after 2 mins by spectrofluorometric method
activity at 2 min, 100 µM listing for selected compounds.

{"columns": ["mol", "activity at 2 min, 100 µM"],
 "data": [
  ["O=[N+]([O-])c1ccc(/N=N/N2CCOCC2)cc1", "16%"],
  ["C1COCCN1", "100%"]
]}

Any idea what activity at 2 min, 100 µM was measured for `Oc1ccc(/C=C/c2cc(O)cc(O)c2)cc1` ?
56%

====

# experimental.system: UniProt Q16678
# method.summary: in vitro
# assay.context: probe ethoxyresorufin (O-deethylation)
Response field label: string, one of YES (activity at 2 min, 100 µM strictly below 80%) or NO.

{"columns": ["mol", "answer.label"],
 "data": [
  ["Nc1ccccc1", "NO"],
  ["Nc1ccc([N+](=O)[O-])cc1", "NO"],
  ["Nc1ccc(Br)cc1", "NO"],
  ["Brc1ccc(/N=N/N2CCOCC2)cc1", "YES"],
  ["COc1cc(N)cc(OC)c1OC", "NO"],
  ["COc1cc(/N=N/N2CCOCC2)cc(OC)c1OC", "YES"]
]}

Dear reviewer, please state whether `Nc1ccc(C(=O)O)cc1` has activity at 2 min, 100 µM strictly beneath 80%.
YES

Dear reviewer, please state whether `c1ccc(/N=N/N2CCOCC2)cc1` has activity at 2 min, 100 µM strictly beneath 80%.
YES

Dear reviewer, please state whether `CC(=O)c1ccc(/N=N/N2CCOCC2)cc1` has activity at 2 min, 100 µM strictly beneath 80%.
NO
